Assay: Human Plasma Protein Binding (Test B)
Type: in vitro ADME
Conditions: fraction unbound (fu)
Entries and their Test B Human Plasma Protein Binding (% free) values follow.

Would you please look over these solved cases?
The reported Test B Human Plasma Protein Binding (% free) of the compound COc1cc(C#N)c(O[C@H]2CC[C@@](C)(C(=O)O)CC2)cc1C(=O)N[C@@H]1[C@H]2CC[C@H](C2)[C@@H]1C(=O)NCC1CC1 was 17 % free

The reported Test B Human Plasma Protein Binding (% free) of the compound COc1cc(F)c(-c2ccc(C3(C(=O)O)CC3)cc2)cc1C(=O)N[C@H]1[C@@H](C(=O)Nc2cccc(S(=O)(=O)C(F)(F)F)c2)[C@@H]2C=C[C@H]1C2 (racemic) was <0.32 % free

The reported Test B Human Plasma Protein Binding (% free) of the compound CCCC1(CNC(=O)[C@H]2[C@@H]3CC[C@@H](C3)[C@H]2NC(=O)c2cc(O[C@H]3CC[C@@](C)(C(=O)O)CC3)c(C#N)cc2OC)CCC1 was 1.6 % free

More entries:
The reported Test B Human Plasma Protein Binding (% free) of the compound COc1cc(F)c(-c2ccc([C@@H]3C[C@H]3C(=O)O)nc2)cc1C(=O)N[C@@H]1[C@H]2CC[C@H](C2)[C@@H]1C(=O)Nc1cccc(S(=O)(=O)C(F)(F)F)c1 (single isomer, unassigned) was 0.89 % free

The reported Test B Human Plasma Protein Binding (% free) of the compound COc1cc(F)c(O[C@H]2CC[C@@H](C(=O)O)CC2)cc1C(=O)N[C@@H]1[C@H]2CC[C@H](C2)[C@@H]1C(=O)Nc1cc(C#N)cc(C(F)(F)F)c1 was 1.1 % free

====

Assay: Human Liver Microsomal Stability (Test C)
Format: in vitro ADME
Conditions: human, liver microsomes
Reported metric: microsomal CLint

Would you please look over these solved cases?
The reported microsomal CLint of the molecule COc1cc(C(F)F)c(O[C@H]2CC[C@@](C)(C(=O)O)CC2)cc1C(=O)N[C@@H]1[C@H]2CC[C@H](C2)[C@@H]1C(=O)NCC1(C)CCC1 was 23 µL/min/mg

The reported microsomal CLint of the molecule CCCCNC(=O)[C@H]1[C@@H]2CC[C@@H](C2)[C@H]1NC(=O)c1cc(O[C@H]2CC[C@@](C)(C(=O)O)CC2)c(C#N)cc1OC was 20 µL/min/mg

More entries:
The reported microsomal CLint of the molecule COc1cc(C#N)c(O[C@H]2CC[C@@](C)(C(=O)O)CC2)cc1C(=O)N[C@@H]1[C@H]2CC[C@H](C2)[C@@H]1C(=O)NCC(=O)NC(C)C was < 3 µL/min/mg

====

Test: Solubility (Test F)
Assay type: physicochemical
Settings: arithmetic mean if run multiple times
Reported metric: solubility (µM)
Express the result in µM but write the number alone.

Would you please look over these solved cases?
The reported solubility of the compound COc1cc(F)c(-c2ccc(CC(=O)O)cc2)cc1C(=O)N[C@H]1[C@@H](C(=O)Nc2cccc(S(=O)(=O)C(F)(F)F)c2)[C@@H]2C=C[C@H]1C2 (racemic) was 690

The reported solubility of the compound COc1cc(C#N)c(O[C@H]2CC[C@@](C)(C(=O)O)CC2)cc1C(=O)N[C@@H]1[C@H]2CC[C@H](C2)[C@@H]1C(=O)NC[C@H](F)CO was 780

More entries:
The reported solubility of the compound COc1cc(F)c(O[C@H]2CC[C@@H](C(=O)O)CC2)cc1C(=O)N[C@@H]1[C@H]2CC[C@H](C2)[C@@H]1C(=O)Nc1cc(C(F)(F)F)ccc1Cl was 250

The reported solubility of the compound COc1cc(F)c(O[C@H]2CC[C@@H](C(=O)O)CC2)cc1C(=O)N[C@H]1[C@@H](C(=O)Nc2ccc(F)c(S(F)(F)(F)(F)F)c2)[C@@H]2C=C[C@H]1C2 was 1000

Provenance of the data: patent US11667602B2
